Target: c-Met kinase (Homo sapiens, UniProt P08581)
Construct: recombinant N-terminal 6×His-tagged c-Met kinase domain construct expressed from baculovirus; 6xHis (N); made in house
Sequence (P08581 1078-1345 limits assumed): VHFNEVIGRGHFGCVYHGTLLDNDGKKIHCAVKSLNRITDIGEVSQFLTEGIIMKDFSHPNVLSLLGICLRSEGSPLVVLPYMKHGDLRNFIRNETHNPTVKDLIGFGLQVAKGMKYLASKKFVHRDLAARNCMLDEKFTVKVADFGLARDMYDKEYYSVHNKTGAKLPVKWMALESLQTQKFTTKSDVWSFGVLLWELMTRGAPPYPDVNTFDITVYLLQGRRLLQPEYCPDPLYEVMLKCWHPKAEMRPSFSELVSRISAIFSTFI
Test: c-Met kinase assay (33P incorporation into Poly(Glu-Tyr))
Assay type: biochemical
Conditions: 500 nM test compound
Method: Inhibition of c-Met kinase activity by compounds disclosed herein was quantified by measuring the amount of [^33P] incorporated into the substrate in the presence of a test compound. […] The plate was then sealed and counted using a TopCount scintillation detector (PerkinElmer). The percentage of inhibition rate of the test compound was calculated by dividing the retained radioactivity of the test sample with the retained radioactivity of the control sample and shown in Table 3.
reported endpoint: inhibition at 0.5 µM (%)
Please respond with the number in % and leave the unit unwritten.

Consider the molecule shown here: O=C(O)CCc1c(/C=C2\C(=O)Nc3ccc(NS(=O)(=O)c4ccc(F)cc4)cc32)[nH]c2c1C(=O)CCC2 [DCB-70145] What is its recorded inhibition at 0.5 µM?
12.5

Consider the molecule shown here: CC1(C)CC(=O)c2c([nH]c(/C=C3\C(=O)Nc4ccc(S(=O)(=O)Cc5c(Cl)cccc5Cl)cc43)c2CCC(=O)O)C1 [DCB-70159] What is its recorded inhibition at 0.5 µM?
81.3

Consider the molecule shown here: O=C(O)CCc1c(/C=C2\C(=O)Nc3ccc(S(=O)(=O)N4CCOCC4)cc32)[nH]c2c1C(=O)CCC2 [DCB-70088] What is its recorded inhibition at 0.5 µM?
25.3

Consider the molecule shown here: CCOC(=O)CCc1c(/C=C2\C(=O)Nc3ccc(OC)cc32)[nH]c2c1C(=O)CCCC2 [DCB-70154] What is its recorded inhibition at 0.5 µM?
47.9

###

Target: Aurora B kinase (Homo sapiens)
Construct: purchased Cell signaling
Experiment: Aurora B kinase assay ([γ-33P]ATP, CHOCKtide substrate)
Assay type: biochemical
Conditions: 1.0 μM test compound
Structures can show the parent of a compound that is named as a salt.
Quick reference for inhibition at 1 µM among some compounds
Please respond with the number in % and leave the unit unwritten.

Examples from the recorded data:
CN1CCN(S(=O)(=O)c2ccc3c(c2)/C(=C/c2[nH]c4c(c2CCC(=O)O)C(=O)CCC4)C(=O)N3)CC1 [DCB-70107, hydrochloride] ... 23.7
O=C(O)CCc1c(/C=C2\C(=O)Nc3cc(-c4ccc(O)cc4)ccc32)[nH]c2c1C(=O)CCC2 ... 55.8
CCOC(=O)CCc1c(/C=C2\C(=O)Nc3ccc(NS(=O)(=O)c4ccc(F)cc4)cc32)[nH]c2c1C(=O)CCC2 ... 61.9

Consider the compound shown here: O=C(O)CCc1c(/C=C2\C(=O)Nc3ccc(NCc4ccccc4)cc32)[nH]c2c1C(=O)CCC2 What is its recorded inhibition at 1 µM?
26.9

###

Biological target: Aurora A kinase (Homo sapiens)
Construct: purchased Upstate
Assay: Aurora A kinase assay ([γ-33P]ATP, CHOCKtide substrate)
Format: biochemical
Settings: 1.0 μM test compound
Label Criterion met when inhibition at 1 µM >= 20%; otherwise Criterion not met.

See these solved cases before continuing.
CCCCCCC#Cc1ccc2c(c1)/C(=C/c1[nH]c3c(c1CCC(=O)O)C(=O)CCC3)C(=O)N2 ... Criterion not met
CCOC(=O)CCc1c(/C=C2\C(=O)Nc3ccc(/N=C/c4ccncc4)cc32)[nH]c2c1C(=O)CCC2 ... Criterion met
O=C(O)CCc1c(/C=C2\C(=O)Nc3ccc(S(=O)(=O)Cc4ccc(F)cc4)cc32)[nH]c2c1C(=O)CCC2 ... Criterion met
CCOC(=O)CCc1c(/C=C2\C(=O)Nc3ccc(NC(=O)Nc4cccc5ccccc45)cc32)[nH]c2c1C(=O)CCC2 ... Criterion not met
CCOC(=O)CCc1c(/C=C2\C(=O)Nc3ccc([N+](=O)[O-])cc32)[nH]c2c1C(=O)CCC2 ... Criterion not met
CCOC(=O)CCc1c(/C=C2\C(=O)Nc3ccc(S(=O)(=O)N4CCc5ccccc54)cc32)[nH]c2c1C(=O)CCC2 ... Criterion met

We next turn to a different compound, shown below.
I'd appreciate it if you could say whether CCOC(=O)CCc1c(/C=C2\C(=O)Nc3ccc(NC(=O)Nc4ccccc4)cc32)[nH]c2c1C(=O)CCC2 has inhibition at 1 µM at least equal to 20%.
Criterion not met

###

Quick reference for inhibition at 1 µM among some compounds
Molecular target: Aurora B kinase (Homo sapiens, UniProt Q96GD4)
Construct: purchased Cell signaling
Sequence (Q96GD4 whole entry): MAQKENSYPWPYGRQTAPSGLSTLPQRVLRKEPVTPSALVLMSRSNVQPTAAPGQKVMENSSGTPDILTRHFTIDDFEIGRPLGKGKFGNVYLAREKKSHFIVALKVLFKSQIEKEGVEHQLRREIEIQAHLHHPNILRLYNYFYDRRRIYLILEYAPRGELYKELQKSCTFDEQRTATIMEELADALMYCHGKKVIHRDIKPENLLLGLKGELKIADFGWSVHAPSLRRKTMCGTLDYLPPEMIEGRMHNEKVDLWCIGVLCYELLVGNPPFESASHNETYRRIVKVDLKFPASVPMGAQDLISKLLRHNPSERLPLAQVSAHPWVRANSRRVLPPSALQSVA
Assay: Aurora B kinase assay ([γ-33P]ATP, CHOCKtide substrate)
Assay type: biochemical
Settings: 1.0 μM test compound
Field: value (include unit after the number)

Examples from the recorded data:
CCOC(=O)CCc1c(/C=C2\C(=O)Nc3ccc(NC(C)c4ccccc4)cc32)[nH]c2c1C(=O)CCC2 (stereo not shown) ... 40.1%
O=C(O)CCc1c(/C=C2\C(=O)Nc3ccc(S(=O)(=O)Nc4ccc(F)c(Cl)c4)cc32)[nH]c2c1C(=O)CCCC2 ... 18.7%
CCCCCCC#Cc1ccc2c(c1)NC(=O)/C2=C\c1[nH]c2c(c1CCC(=O)O)C(=O)CCC2 ... 17.4%

Consider the compound shown here: O=C(O)CCc1c(/C=C2\C(=O)Nc3cc(-c4ccc(O)c(O)c4)ccc32)[nH]c2c1C(=O)CCC2 What is its recorded inhibition at 1 µM?
63.4%

Consider the compound shown here: CC(=O)c1c(C)[nH]c(/C=C2\C(=O)Nc3ccc(S(=O)(=O)N4CCc5ccccc54)cc32)c1CCC(=O)N1CCN(C)CC1 What is its recorded inhibition at 1 µM?
21.1%

Consider the compound shown here: COc1ccc2c(c1)/C(=C/c1[nH]c3c(c1CCC(=O)O)C(=O)CCC3)C(=O)N2 What is its recorded inhibition at 1 µM?
19.8%

Consider the compound shown here: CCOC(=O)CCc1c(/C=C2\C(=O)Nc3ccc(NS(=O)(=O)c4cccc(OC)c4)cc32)[nH]c2c1C(=O)CCC2 What is its recorded inhibition at 1 µM?
47.5%

###

Quick reference for inhibition at 1 µM among some molecules
Target: Aurora A kinase (Homo sapiens, UniProt O14965)
Construct: purchased Upstate
Sequence (O14965 whole entry): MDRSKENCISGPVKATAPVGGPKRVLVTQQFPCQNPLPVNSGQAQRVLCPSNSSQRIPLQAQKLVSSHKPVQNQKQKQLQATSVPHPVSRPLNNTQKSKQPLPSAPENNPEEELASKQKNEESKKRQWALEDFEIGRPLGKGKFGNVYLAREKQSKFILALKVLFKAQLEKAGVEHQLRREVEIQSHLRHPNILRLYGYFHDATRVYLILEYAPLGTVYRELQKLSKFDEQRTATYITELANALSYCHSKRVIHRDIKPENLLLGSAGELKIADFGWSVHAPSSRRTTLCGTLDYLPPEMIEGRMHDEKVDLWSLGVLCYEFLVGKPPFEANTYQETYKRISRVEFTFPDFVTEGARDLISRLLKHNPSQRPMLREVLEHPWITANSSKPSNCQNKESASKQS
Test: Aurora A kinase assay ([γ-33P]ATP, CHOCKtide substrate)
Format: biochemical
Details: 1.0 μM test compound
Please respond with the number in % and leave the unit unwritten.

Examples from the recorded data:
CN(c1cccc(Cl)c1)S(=O)(=O)c1ccc2c(c1)/C(=C/c1[nH]c3c(c1CCC(=O)O)C(=O)CCCC3)C(=O)N2 ... 80.7
O=C(O)CCc1c(/C=C2\C(=O)Nc3ccc(NS(=O)(=O)Cc4ccccc4)cc32)[nH]c2c1C(=O)CCC2 ... 96.1
CC(=O)c1c(C)[nH]c(/C=C2\C(=O)Nc3ccc(F)cc32)c1CCC(=O)O ... 62.8

Provide value of inhibition at 1 µM for this record tested with Aurora A kinase (Homo sapiens, UniProt O14965): CC(=O)c1c(C)[nH]c(/C=C2\C(=O)Nc3ccc(NS(=O)(=O)c4ccccc4)cc32)c1CCC(=O)O
93.1

Provide value of inhibition at 1 µM for this record tested with Aurora A kinase (Homo sapiens, UniProt O14965): CC(=O)Nc1ccc2c(c1)/C(=C/c1[nH]c3c(c1CCC(=O)O)C(=O)CCC3)C(=O)N2
83.6

Provide value of inhibition at 1 µM for this record tested with Aurora A kinase (Homo sapiens, UniProt O14965): CCOC(=O)CCc1c(/C=C2\C(=O)Nc3cc(-c4cc(F)cc(F)c4)ccc32)[nH]c2c1C(=O)CCC2
9.9

Provide value of inhibition at 1 µM for this record tested with Aurora A kinase (Homo sapiens, UniProt O14965): CCOC(=O)CCc1c(/C=C2\C(=O)Nc3ccc(-c4ccc(F)cc4)cc32)[nH]c2c1C(=O)CCC2
7.5

Provide value of inhibition at 1 µM for this record tested with Aurora A kinase (Homo sapiens, UniProt O14965): O=C(O)CCc1c(/C=C2\C(=O)Nc3ccc(S(=O)(=O)Cc4ccccc4)cc32)[nH]c2c1C(=O)CCC2
82.1

###

Biological target: c-Met kinase (Homo sapiens, UniProt P08581)
Construct: recombinant N-terminal 6×His-tagged c-Met kinase domain construct expressed from baculovirus; 6xHis (N); made in house
Experiment: c-Met kinase assay (33P incorporation into Poly(Glu-Tyr))
Type: biochemical
Conditions: 500 nM test compound
Quick reference for inhibition at 0.5 µM among some compounds
Please respond with the number in % and leave the unit unwritten.

Examples from the recorded data:
CCOC(=O)CCc1c(/C=C2\C(=O)Nc3ccc(NS(=O)(=O)c4ccccc4)cc32)[nH]c2c1C(=O)CCCC2 [DCB-70146] ... 20.9
CCOC(=O)CCc1c(/C=C2\C(=O)Nc3ccc(NC(=O)c4ccccc4)cc32)[nH]c2c1C(=O)CCC2 [DCB-70096] ... 8.9
CCOC(=O)CCc1c(/C=C2\C(=O)Nc3ccc(NC(=O)Nc4ccc(C)cc4)cc32)[nH]c2c1C(=O)CCC2 [DCB-70091] ... -0.5

Provide value of inhibition at 0.5 µM for this record tested with c-Met kinase (Homo sapiens, UniProt P08581): CCOC(=O)CCc1c(/C=C2\C(=O)Nc3cc(-c4ccc(F)cc4)ccc32)[nH]c2c1C(=O)CCC2 [DCB-70098]
27.2

Provide value of inhibition at 0.5 µM for this record tested with c-Met kinase (Homo sapiens, UniProt P08581): CCOC(=O)CCc1c(/C=C2\C(=O)Nc3cc(-c4ccc(O)c(O)c4)ccc32)[nH]c2c1C(=O)CCC2 [DCB-70077]
4.1

Provide value of inhibition at 0.5 µM for this record tested with c-Met kinase (Homo sapiens, UniProt P08581): CCOC(=O)CCc1c(/C=C2\C(=O)Nc3cc(-c4ccc(O)cc4)ccc32)[nH]c2c1C(=O)CCCC2 [DCB-70150]
0.2
